Origin of values: ChEMBL document CHEMBL3804830

Assay: Antiproliferative activity against human EC109 cells assessed as cell growth inhibition after 72 hrs by MTT assay
Format: functional, cell-based
Details: ECa-109, 72 h
pIC50: −log10 of the molar value.
Recorded measurements of pIC50, one per entry

# smiles structure, pIC50
rows = [
    ("C[C@]12CC[C@H](OC(=O)Cn3cc(CN4C(=O)C(=O)c5cc(Cl)ccc54)nn3)CC1=CC[C@@H]1[C@@H]2CC[C@]2(C)C(=O)CC[C@@H]12", 4.21),
    ("C[C@]12CC[C@H](OC(=O)Cn3cc(COc4ccccc4[N+](=O)[O-])nn3)CC1=CC[C@@H]1[C@@H]2CC[C@]2(C)C(=O)CC[C@@H]12", 4.30),
    ("C[C@]12CC[C@H](OC(=O)Cn3cc(CNc4cccc([N+](=O)[O-])c4)nn3)CC1=CC[C@@H]1[C@@H]2CC[C@]2(C)C(=O)CC[C@@H]12", 4.26),
    ("C[C@]12CC[C@H](OC(=O)Cn3cc(CN4C(=O)C(=O)c5c(Cl)cccc54)nn3)CC1=CC[C@@H]1[C@@H]2CC[C@]2(C)C(=O)CC[C@@H]12", 3.91),
    ("C[C@]12CC[C@H](OC(=O)Cn3cc(CN4C(=O)C(=O)c5c(Br)cccc54)nn3)CC1=CC[C@@H]1[C@@H]2CC[C@]2(C)C(=O)CC[C@@H]12", 4.11),
]

====

Molecular target: Lysine-specific histone demethylase 1A (Homo sapiens, UniProt O60341)
Test: Inhibition of recombinant LSD1 (157 to 852 amino acids) (unknown origin) expressed in Escherichia coli BL21(DE) using H3K4me2 substrate
measured property: IC50 (µM)

# smiles structure, reported result
data = [
    ("C[C@]12CC[C@H](OC(=O)Cn3cc(CN4C(=O)C(=O)c5c(Cl)ccc(Cl)c54)nn3)CC1=CC[C@@H]1[C@@H]2CC[C@]2(C)C(=O)CC[C@@H]12", 3.18),
]

====

System: MCF7
Assay: cells
Settings: Homo sapiens, MCF7, 72 h
Description: Antiproliferative activity against human MCF7 cells assessed as cell growth inhibition after 72 hrs by MTT assay
pIC50: −log10 of the molar value.
Here the recorded pIC50 is given for each entry.

# smiles structure, target or test system, pIC50
data = [
    ("C[C@]12CC[C@H](OC(=O)Cn3cc(CN4C(=O)C(=O)c5cc(Cl)ccc54)nn3)CC1=CC[C@@H]1[C@@H]2CC[C@]2(C)C(=O)CC[C@@H]12", "MCF7", "< 3.89"),
    ("C[C@]12CC[C@H](OC(=O)Cn3cc(CN4C(=O)C(=O)c5ccccc54)nn3)CC1=CC[C@@H]1[C@@H]2CC[C@]2(C)C(=O)CC[C@@H]12", "MCF7", "< 3.89"),
    ("C[C@]12CC[C@H](OC(=O)Cn3cc(COc4ccc(C(=O)/C=C/c5ccc(Cl)c(Cl)c5)cc4)nn3)CC1=CC[C@@H]1[C@@H]2CC[C@]2(C)C(=O)CC[C@@H]12", "MCF7", "< 3.89"),
    ("C[C@]12CC[C@H](OC(=O)Cn3cc(COc4cc(=O)oc5ccccc45)nn3)CC1=CC[C@@H]1[C@@H]2CC[C@]2(C)C(=O)CC[C@@H]12", "MCF7", "< 3.89"),
    ("C[C@]12CC[C@H](OC(=O)Cn3cc(Cn4cc(F)c(=O)n(Cc5cn(CC(=O)O[C@H]6CC[C@@]7(C)C(=CC[C@@H]8[C@@H]7CC[C@]7(C)C(=O)CC[C@@H]87)C6)nn5)c4=O)nn3)CC1=CC[C@@H]1[C@@H]2CC[C@]2(C)C(=O)CC[C@@H]12", "MCF7", "< 3.89"),
]

====

Assay: Antiproliferative activity against human MGC803 cells assessed as cell growth inhibition after 72 hrs by MTT assay
Format: functional, cell-based
Settings: MGC-803, 72 h
pIC50: −log10 of the molar value.
measured property: pIC50

# smiles structure, reported result
rows = [
    ("Cc1ccc(/C=C/C(=O)c2ccc(OCc3cn(CC(=O)O[C@H]4CC[C@@]5(C)C(=CC[C@@H]6[C@@H]5CC[C@]5(C)C(=O)CC[C@@H]65)C4)nn3)cc2)cc1", "< 3.89"),
    ("C[C@]12CC[C@H](OC(=O)Cn3cc(COc4cc(=O)oc5ccccc45)nn3)CC1=CC[C@@H]1[C@@H]2CC[C@]2(C)C(=O)CC[C@@H]12", "< 3.89"),
    ("C[C@]12CC[C@H](OC(=O)Cn3cc(COc4ccc(C(=O)/C=C/c5ccc(F)c(F)c5)cc4)nn3)CC1=CC[C@@H]1[C@@H]2CC[C@]2(C)C(=O)CC[C@@H]12", "< 3.89"),
]

====

// IC50 lookup, one value per entry
System: MCF7
Test: cells
Conditions: Homo sapiens, MCF7, 72 h

# smiles structure, IC50
rows = [
    ("C[C@]12CC[C@H](OC(=O)Cn3cc(COc4ccc(C(=O)/C=C/c5ccc([N+](=O)[O-])cc5)cc4)nn3)CC1=CC[C@@H]1[C@@H]2CC[C@]2(C)C(=O)CC[C@@H]12", "> 128 µM"),
    ("C[C@]12CC[C@H](OC(=O)Cn3cc(CN4C(=O)C(=O)c5c(Cl)cccc54)nn3)CC1=CC[C@@H]1[C@@H]2CC[C@]2(C)C(=O)CC[C@@H]12", "> 128 µM"),
    ("C[C@]12CC[C@H](OC(=O)Cn3cc(COc4ccc5ccc(=O)oc5c4)nn3)CC1=CC[C@@H]1[C@@H]2CC[C@]2(C)C(=O)CC[C@@H]12", "> 128 µM"),
]

====

Each entry below carries its recorded pIC50.
Experiment: Antiproliferative activity against human MGC803 cells assessed as cell growth inhibition after 72 hrs by MTT assay
Type: functional, cell-based
Conditions: MGC-803, 72 h
pIC50: −log10 of the molar value.

# smiles structure, pIC50
records = [
    ("C[C@]12CC[C@H](OC(=O)Cn3cc(COc4ccc(/C=C/C(=O)c5ccccc5)cc4)nn3)CC1=CC[C@@H]1[C@@H]2CC[C@]2(C)C(=O)CC[C@@H]12", "< 3.89"),
    ("C[C@]12CC[C@H](OC(=O)Cn3cc(Cn4cc(F)c(=O)n(Cc5cn(CC(=O)O[C@H]6CC[C@@]7(C)C(=CC[C@@H]8[C@@H]7CC[C@]7(C)C(=O)CC[C@@H]87)C6)nn5)c4=O)nn3)CC1=CC[C@@H]1[C@@H]2CC[C@]2(C)C(=O)CC[C@@H]12", "< 3.89"),
    ("C[C@]12CC[C@H](OC(=O)Cn3cc(CN4C(=O)C(=O)c5c(Cl)cccc54)nn3)CC1=CC[C@@H]1[C@@H]2CC[C@]2(C)C(=O)CC[C@@H]12", "< 3.89"),
]
